Please respond with reported % activity of native glucagon for every item in the list.
# SYSTEM UNDER TEST: glucagon receptor (UniProt P47871 26-477, limits assumed)
# Sequence (P47871 26-477 limits assumed): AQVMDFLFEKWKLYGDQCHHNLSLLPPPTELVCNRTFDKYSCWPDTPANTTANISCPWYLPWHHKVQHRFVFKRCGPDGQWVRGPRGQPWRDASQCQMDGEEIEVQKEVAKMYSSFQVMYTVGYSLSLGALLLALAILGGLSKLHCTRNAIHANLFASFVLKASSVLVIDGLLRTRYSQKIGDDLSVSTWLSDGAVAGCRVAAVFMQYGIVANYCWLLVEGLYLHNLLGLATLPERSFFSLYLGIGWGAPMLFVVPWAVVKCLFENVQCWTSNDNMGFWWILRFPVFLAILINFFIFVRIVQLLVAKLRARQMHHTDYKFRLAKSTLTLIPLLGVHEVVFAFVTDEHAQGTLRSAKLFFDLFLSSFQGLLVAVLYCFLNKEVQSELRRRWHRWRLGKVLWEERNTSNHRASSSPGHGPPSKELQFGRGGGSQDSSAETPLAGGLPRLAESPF
# ASSAY PROTOCOL: cell-based or functional assay
Positions of bridges follow the written chain, without caps; N, C: chain ends. Non-standard residues stand in square brackets, D forms with d. Groups on a side chain read outwards from the residue. Primed or numbered codes have the meaning given here. No end group written: not given here. PEG 40 kDa″ = 40 kDa polyethylene glycol; Aib = CC(C)(N)C(=O)O
Numbers only, in %.

H[Aib]QGTFTSDYSKYLDEQAAKEFIC([maleimide-PEG 40 kDa″])WLMNT (lactam 16-20) [Peptide Y-PEG]	8.22

For every record below, what is its % activity of native glucagon?
1. H[Aib]QGTFTSDYSKYLDEQAAKEFICWLMNT [Peptide X]
2. H[Aib]QGTFTSDYSKYLDEQAAKEFICWLMNT (lactam 16-20) [Peptide Y]
3. H[Aib]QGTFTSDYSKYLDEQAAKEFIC([maleimide-PEG 40 kDa])WLMNT [Peptide X-PEG]

1. 9.38
2. 99.5
3. 1.9

Hello, the source for this data is patent US20120172295A1, in case you need it.
